target_entity: human DPP1 enzyme (Homo sapiens (Human), UniProt P53634)
Sequence (P53634 231-394): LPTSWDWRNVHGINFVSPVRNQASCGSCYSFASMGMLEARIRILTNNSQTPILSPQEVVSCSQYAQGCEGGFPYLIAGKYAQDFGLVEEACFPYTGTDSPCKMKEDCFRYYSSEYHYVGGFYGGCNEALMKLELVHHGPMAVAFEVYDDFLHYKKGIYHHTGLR
Sequence (P53634 25-134): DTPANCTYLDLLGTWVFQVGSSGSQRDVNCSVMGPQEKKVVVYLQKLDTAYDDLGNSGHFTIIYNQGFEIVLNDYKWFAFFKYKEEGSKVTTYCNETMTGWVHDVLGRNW
Sequence (P53634 395-463): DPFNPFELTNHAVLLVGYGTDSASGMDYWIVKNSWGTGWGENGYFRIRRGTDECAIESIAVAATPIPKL
test_name: Activity on human recombinant DPP1 isolated enzyme assay (H-Gly-Arg-AMC cleavage, fluorescence)
Format: biochemical
condition_parameters: 0.35 nM human DPP1, 300 μM H-Gly-Arg-AMC, 30 min pre-incubation at 25° C., pH 5.0; read-out: h DPP1 pIC50 (converted)
Please provide measured IC50 for the entries that follow.

# annotated cases, reported IC50 shown
{"input_smiles": "N#Cc1ccc(-c2ccc(C[C@@H](C#N)NC(=O)C3(Cc4ccccc4)CNC3)cc2)cc1", "quantity_name": "IC50", "data_value": "1 to 10 µM"}
{"input_smiles": "COC1(C(=O)N[C@H](C#N)Cc2ccc(-c3ccc(C#N)cc3)cc2)CN(C(C)C)C1", "quantity_name": "IC50", "data_value": "1 to 10 µM"}
{"input_smiles": "COC1(C(=O)N[C@H](C#N)Cc2ccc(-c3ccc(C#N)cc3)cc2)CN(C2COC2)C1", "quantity_name": "IC50", "data_value": "0.1 to 1 µM"}
{"input_smiles": "CCCN1CC(OC)(C(=O)N[C@H](C#N)Cc2ccc(-c3ccc(C#N)cc3)cc2)C1", "quantity_name": "IC50", "data_value": "1 to 10 µM"}

Record IC50 for all entries; do not skip any.
1. COC1(C(=O)N[C@H](C#N)Cc2ccc(-c3ccc(C#N)cc3)cc2F)CNC1
2. N#Cc1ccc(-c2ccc(C[C@@H](C#N)NC(=O)C3(CF)CNC3)cc2)cc1
3. N#Cc1ccc(-c2ccc(C[C@@H](C#N)NC(=O)C3(Oc4ccccc4)CNC3)cc2)cc1
4. Cn1c(=O)oc2ccc(-c3ccc(C[C@@H](C#N)NC(=O)C4(C(F)F)CNC4)cc3)cc21

Key:
1. 0.01 to 0.1 µM
2. 0.01 to 0.1 µM
3. 1 to 10 µM
4. 0.01 to 0.1 µM
